Entry source: ChEMBL document CHEMBL3600328

Test: Inhibition of beta-hematin formation
Assay type: physicochemical
Quick reference for IC50 among some compounds
reportedEndpoint: IC50 (µM)

querysmiles=C=C[C@H]1CN2CC[C@@H]1C[C@@H]2Cc1ccnc2ccccc12 reportedendpoint=IC50 reading=66
querysmiles=CN(C)CCNc1cc(-c2ccc3ccccc3c2)nc2ccccc12 reportedendpoint=IC50 reading=26
querysmiles=Nc1cc(O)c2ccccc2n1 reportedendpoint=IC50 reading=85
querysmiles=Cc1ccc(C(=O)C2=C(O)C(=O)N(Cc3cccnc3)[C@H]2c2ccc(Cl)c(Cl)c2)o1 reportedendpoint=IC50 reading=88
querysmiles=COc1cc(-c2nc3cc([N+](=O)[O-])ccc3[nH]2)ccc1O reportedendpoint=IC50 reading=22
querysmiles=O=C(O)c1cc(-c2ccc(-c3ccccc3)cc2)nc2ccccc12 reportedendpoint=IC50 reading=46
